Value source: patent US11873298B2

# target_or_test_system: SCD5 (Homo sapiens, UniProt Q86SK9)
# Construct: host or cells: S. cerevisiae ole1Δ strain (W303 pdr1Δ pdr3Δ background), plasmid pRS316 with TDH3 promoter and CYC1 terminator
# Sequence (Q86SK9 whole entry): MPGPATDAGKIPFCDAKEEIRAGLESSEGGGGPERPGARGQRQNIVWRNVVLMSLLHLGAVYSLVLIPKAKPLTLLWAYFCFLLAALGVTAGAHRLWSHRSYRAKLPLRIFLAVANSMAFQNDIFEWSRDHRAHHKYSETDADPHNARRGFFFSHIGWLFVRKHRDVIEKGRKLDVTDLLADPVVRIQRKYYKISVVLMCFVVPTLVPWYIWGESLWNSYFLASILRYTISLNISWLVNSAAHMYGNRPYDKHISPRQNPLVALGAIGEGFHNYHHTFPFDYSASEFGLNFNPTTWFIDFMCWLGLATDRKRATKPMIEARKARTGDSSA
# measurement_protocol: Growth inhibition of humanized yeast strain expressing SCD5 as sole desaturase
# Format: cell-based
# test_parameters: humanized yeast strain, 40 h
// assign label 1 if IC50 falls strictly below 1000 nM, else label 0 (ties count as label 0)

Reference set, count: 8
>  <molecule>
O=C(C1CC2(CC2)C1)N1CCN(c2noc(-c3ccc4cnn(C5COC5)c4c3)n2)CC1 [Compound 864]

>  <target_or_test_system>
SCD5 (Homo sapiens, UniProt Q86SK9)

>  <class>
label 0

$$$$
>  <molecule>
CC(C)(C)OC(=O)N1CCC(c2nc(-c3ccc4cnn([C@H]5C[C@](C)(O)C5)c4c3)no2)CC1 [Compound 821]

>  <target_or_test_system>
SCD5 (Homo sapiens, UniProt Q86SK9)

>  <class>
label 0

$$$$
>  <molecule>
CC(C)C(=O)N1CCC(c2noc(-c3ccc(F)c(N4CCOCC4)c3)n2)CC1 [Compound 1162]

>  <target_or_test_system>
SCD5 (Homo sapiens, UniProt Q86SK9)

>  <class>
label 1

$$$$
>  <molecule>
COC(=O)N1CC[C@@H](c2noc(-c3ccc4cnn(C5COC5)c4c3)n2)C[C@@H]1C [Compound 1054]

>  <target_or_test_system>
SCD5 (Homo sapiens, UniProt Q86SK9)

>  <class>
label 1

$$$$
>  <molecule>
CC(C)(C)OC(=O)N1C[C@@H]2[C@H](C1)[C@H]2C(=O)NCc1cccc(C#N)c1 [Compound 772]

>  <target_or_test_system>
SCD5 (Homo sapiens, UniProt Q86SK9)

>  <class>
label 0

$$$$
>  <molecule>
COC(=O)N1CCC(c2nnc(-c3ccc4cnn(C5COC5)c4c3)o2)CC1 [Compound 871]

>  <target_or_test_system>
SCD5 (Homo sapiens, UniProt Q86SK9)

>  <class>
label 0

$$$$
>  <molecule>
CC(=O)N1CC(n2cc3ccc(-c4noc(N5CCN(C(=O)OC(C)(C)C)CC5)n4)cc3n2)C1 [Compound 898]

>  <target_or_test_system>
SCD5 (Homo sapiens, UniProt Q86SK9)

>  <class>
label 1

$$$$
>  <molecule>
COC(=O)N1CCC(c2noc(-c3ccnc(CC4CC4)c3)n2)CC1 [Compound 1081]

>  <target_or_test_system>
SCD5 (Homo sapiens, UniProt Q86SK9)

>  <class>
label 0

$$$$

Does the reported IC50 of CC(C)(C)CC(=O)N1CCC(c2nc(-c3ccc4cnn(C5(C)COC5)c4c3)no2)CC1 [Compound 807] stay below 1000 nM? label 1

Does the reported IC50 of CC(C)n1nc(CCS(C)(=O)=O)c2ccc(-c3noc(C4CCN(C(=O)OC(C)(C)C)CC4)n3)cc21 [Compound 766] stay below 1000 nM? label 0

Does the reported IC50 of COC(=O)N1CCC(c2noc(-c3cc(F)c4cnn(C5COC5)c4c3)n2)CC1 [Compound 875] stay below 1000 nM? label 1

Does the reported IC50 of Clc1cnc2n1CCN(c1noc(-c3ccc4cnn(C5CNC5)c4c3)n1)C2 [Compound 934] stay below 1000 nM? label 1

Does the reported IC50 of CC1(OC(=O)N2CCC(c3nc(-c4ccc5cnn(C6(C)COC6)c5c4)no3)CC2)CC1 [Compound 816] stay below 1000 nM? label 0

Does the reported IC50 of CC(C)(C)OC(=O)N1CCN(c2noc(-c3ccc4cnn(C5CNC5)c4c3)n2)CC1 [Compound 932] stay below 1000 nM? label 1

Does the reported IC50 of COC1(C(=O)N2CCC(c3noc(-c4ccc5cnn(C(C)C)c5c4)n3)CC2)CC1 [Compound 799] stay below 1000 nM? label 1
